# IC50 values compiled below
- Tgt: RNR (RNR1:RNR2) (Homo sapiens (Human), UniProt P23921+P31350)
- Sequence (P23921 whole entry): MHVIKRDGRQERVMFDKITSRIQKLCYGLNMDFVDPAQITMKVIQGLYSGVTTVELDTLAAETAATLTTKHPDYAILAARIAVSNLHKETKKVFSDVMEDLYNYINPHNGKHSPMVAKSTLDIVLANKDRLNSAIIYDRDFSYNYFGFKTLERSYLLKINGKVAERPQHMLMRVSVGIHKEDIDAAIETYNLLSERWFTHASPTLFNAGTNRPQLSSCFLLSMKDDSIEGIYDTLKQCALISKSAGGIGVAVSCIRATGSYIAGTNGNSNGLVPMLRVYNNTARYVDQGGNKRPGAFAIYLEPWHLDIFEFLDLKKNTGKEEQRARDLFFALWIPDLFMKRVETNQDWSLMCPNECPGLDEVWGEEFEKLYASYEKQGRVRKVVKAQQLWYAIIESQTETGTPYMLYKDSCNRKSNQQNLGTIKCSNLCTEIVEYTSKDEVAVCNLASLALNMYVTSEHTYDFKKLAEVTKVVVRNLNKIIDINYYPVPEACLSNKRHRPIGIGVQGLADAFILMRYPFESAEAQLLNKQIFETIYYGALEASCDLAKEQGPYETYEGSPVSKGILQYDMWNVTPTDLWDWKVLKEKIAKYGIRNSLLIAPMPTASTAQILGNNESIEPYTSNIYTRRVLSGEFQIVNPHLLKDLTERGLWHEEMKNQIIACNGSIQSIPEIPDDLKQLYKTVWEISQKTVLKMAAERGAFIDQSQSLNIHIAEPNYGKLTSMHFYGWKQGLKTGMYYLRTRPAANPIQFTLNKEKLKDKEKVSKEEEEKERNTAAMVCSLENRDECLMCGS
- Sequence (P31350 whole entry): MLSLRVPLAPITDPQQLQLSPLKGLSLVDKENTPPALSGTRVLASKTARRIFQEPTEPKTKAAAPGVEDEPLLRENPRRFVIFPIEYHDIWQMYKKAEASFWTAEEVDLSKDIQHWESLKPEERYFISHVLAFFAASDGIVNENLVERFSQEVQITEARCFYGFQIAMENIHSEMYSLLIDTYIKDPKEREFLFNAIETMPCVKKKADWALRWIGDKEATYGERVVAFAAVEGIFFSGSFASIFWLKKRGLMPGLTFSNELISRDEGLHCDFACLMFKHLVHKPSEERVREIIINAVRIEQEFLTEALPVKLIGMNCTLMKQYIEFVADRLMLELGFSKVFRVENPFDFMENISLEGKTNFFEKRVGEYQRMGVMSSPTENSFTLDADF
- Assay Method Text: RNR enzyme activity, rapid-fire mass spectrometry (RFMS) assay
- Reported Conditions: [RNR] 50 nM, 1:1 RNR1:RNR2, [CDP] 5 μM, [ATP] 1 mM, 37° C., 45 min

Take a look at these entries with their results.
Query Smiles	IC50
Cc1ccc(F)c([C@@H](C)[C@H](NS(=O)(=O)c2ccc(Cl)cc2C(F)F)c2nn[nH]n2)c1C	100 to 1000 nM
Cc1ccc(F)c([C@@H](C)[C@H](NS(=O)(=O)c2ccc(F)c(C#N)c2)c2nn[nH]n2)c1C	1000 to 5000 nM
Cc1ccc(F)c([C@@H](C)[C@H](NS(=O)(=O)c2c(Cl)cc(Cl)c3c2OCCN3C)c2nn[nH]n2)c1C	≤ 100 nM
Cc1ccc(F)c(S(=O)(=O)N[C@H](c2nn[nH]n2)[C@H](C)c2c(F)ccc(C)c2C)c1	1000 to 5000 nM
Cc1ccc(F)c([C@H](C)[C@H](c2nn[nH]n2)c2c(S(N)(=O)=O)ccc(Cl)c2C#N)c1C	100 to 1000 nM

Query string: Short answer please: IC50, RNR (RNR1:RNR2) (Homo sapiens (Human), UniProt P23921+P31350), entry Cc1ccc(F)c([C@@H](C)[C@H](NS(=O)(=O)c2cc(Cl)c(F)cc2F)c2nn[nH]n2)c1C
Result string: 1000 to 5000 nM

Query string: Look up IC50 with RNR (RNR1:RNR2) (Homo sapiens (Human), UniProt P23921+P31350) for this compound: COc1nc(Cl)ccc1S(=O)(=O)N[C@H](c1nn[nH]n1)[C@H](C)c1c(F)ccc(C)c1C
Result string: ≤ 100 nM

====

- Tgt: RNR (RNR1:RNR2) (Homo sapiens (Human), UniProt P23921+P31350)
- Assay Method Text: RNR enzyme activity, rapid-fire mass spectrometry (RFMS) assay
- Reported Conditions: [RNR] 50 nM, 1:1 RNR1:RNR2, [CDP] 5 μM, [ATP] 1 mM, 37° C., 45 min
pIC50: −log10 of the molar value.
Measured pIC50, listed per entry for reference.

Below are worked cases with known answers.
Compound	pIC50
Cc1ccc(F)c([C@@H](C)[C@H](NS(=O)(=O)c2ccc(Cl)c3c2OCC[C@H]3O)c2nn[nH]n2)c1C	≥ 7.00
Cc1ccc(F)c([C@@H](C)[C@H](NS(=O)(=O)c2ccc(Cl)cc2N(C)CCO)c2nn[nH]n2)c1C	≥ 7.00
Cc1ccc(F)c([C@@H](C)[C@H](NS(=O)(=O)c2ccc(Cl)cc2C(F)(F)F)c2nn[nH]n2)c1C	6.00 to 7.00
Cc1ccc(F)c([C@@H](C)[C@H](NS(=O)(=O)c2ccc(Cl)cc2N2CCCCC2)c2nn[nH]n2)c1C	6.00 to 7.00
Cc1ccc(F)c([C@@H](C)[C@H](NS(=O)(=O)c2ccc(Cl)cc2O)c2nn[nH]n2)c1C	6.00 to 7.00

Query string: Given Cc1cc(S(=O)(=O)N[C@H](c2nn[nH]n2)[C@H](C)c2c(F)ccc(C)c2C)c(C)cc1Cl , state its recorded pIC50.
Result string: 5.30 to 6.00

Query string: For the compound shown here, Cc1ccc(F)c([C@@H](C)[C@H](NS(=O)(=O)c2ccc(Cl)c3c2OCC[C@@]3(C)O)c2nn[nH]n2)c1C (single isomer, unassigned) [Example 4] , give the reported pIC50.
Result string: ≥ 7.00

Query string: So what does the record say about pIC50 for Cc1ccc(F)c([C@@H](C)[C@H](NS(=O)(=O)c2ccc(Cl)c3c2OCCC3=O)c2nn[nH]n2)c1C ?
Result string: ≥ 7.00

Query string: # query: pIC50 of entry COc1c(S(=O)(=O)N[C@H](c2nn[nH]n2)[C@H](C)c2c(F)ccc(C)c2C)ccc(C#N)c1F (racemic)
Result string: 6.00 to 7.00

Query string: What measured pIC50 goes with Cc1ccc(F)c([C@@H](C)[C@H](NS(=O)(=O)c2ccc(Cl)c3c2OCC[C@]3(C)O)c2nn[nH]n2)c1C (single isomer, unassigned) ?
Result string: ≥ 7.00

Query string: Reported pIC50 for Cc1ccc(F)c([C@@H](C)[C@H](NS(=O)(=O)c2ccc(Cl)cc2CC(=O)N2CCCCC2)c2nn[nH]n2)c1C : what is it?
Result string: 6.00 to 7.00

Query string: Fill in the blank: the reported pIC50 of Cc1ccc(F)c([C@@H](C)[C@H](NS(=O)(=O)c2cc(Cl)c(Cl)cc2F)c2nn[nH]n2)c1C is ____.
Result string: 5.30 to 6.00

Query string: Given COc1cc(Cl)ccc1S(=O)(=O)N[C@H](c1nnnn1C)[C@H](C)c1c(F)ccc(C)c1C , state its recorded pIC50.
Result string: 4.52 to 5.30

Query string: Query: pIC50; subject: Cc1ccc(F)c([C@@H](C)[C@H](NS(=O)(=O)c2ccc(Cl)cc2OC(F)(F)F)c2nn[nH]n2)c1C
Result string: ≥ 7.00

====

- Tgt: RNR (RNR1:RNR2) (Homo sapiens (Human), UniProt P23921+P31350)
- Assay Method Text: RNR enzyme activity, rapid-fire mass spectrometry (RFMS) assay
- Format: biochemical
- Reported Conditions: [RNR] 50 nM, 1:1 RNR1:RNR2, [CDP] 5 μM, [ATP] 1 mM, 37° C., 45 min
- Experimental: A rapid-fire mass spectrometry (RFMS) assay was used to assess RNR enzyme activity using a 384 well plate and a robotic platform. The plate layout included two validated reference compounds (Triapine (3-AP) and Hydroxyurea (HU)): • A dose response in duplicate; top concentration: 5 μM (3-AP) and 250 μM (HU), semi-log • dilutions. • Spike wells in triplicate randomly spotted at four concentrations: • 250 μM, 100 μM, 30 μM and 2 μM for HU • 5 μM, 2 μM, 0.6 μM and 0.04 μM for 3-AP […]
// IC50 lookup, one value per entry

As a guide, the following entries are already answered.
Query Smiles	IC50
Cc1ccc(F)c([C@@H](C)[C@H](NS(=O)(=O)c2ccc(Cl)cc2N2CCN(C)CC2)c2nn[nH]n2)c1C	100 to 1000 nM
Cc1ccc(F)c([C@@H](C)[C@H](NS(=O)(=O)c2ccc(Cl)c3nonc23)c2nn[nH]n2)c1C	100 to 1000 nM
Cc1ccc(F)c([C@@H](C)[C@H](NS(=O)(=O)C2CCCCC2)c2nn[nH]n2)c1C	1000 to 5000 nM
COc1cc(Cl)ccc1S(=O)(=O)N[C@H](c1nnn(C)n1)[C@H](C)c1c(F)ccc(C)c1C	5000 to 30000 nM

Query string: Given Cc1ccc(F)c([C@@H](C)[C@H](NS(=O)(=O)c2ccc(Cl)c(F)c2)c2nn[nH]n2)c1C , state its recorded IC50.
Result string: 100 to 1000 nM

Query string: Would you mind telling me what IC50 value was observed for Cc1cc(S(=O)(=O)N[C@H](c2nn[nH]n2)[C@H](C)c2c(F)ccc(C)c2C)c(F)cc1Cl ?
Result string: 1000 to 5000 nM

Query string: Which IC50 is reported for this molecule? Cc1ccc(F)c([C@@H](C)[C@H](NS(=O)(=O)c2ccc(Cl)c(C(F)(F)C(=O)N(C)C)c2)c2nn[nH]n2)c1C
Result string: 100 to 1000 nM

Query string: I would be grateful if you could share the reported IC50 for CCc1cc(Cl)ccc1S(=O)(=O)N[C@H](c1nn[nH]n1)[C@H](C)c1c(F)ccc(C)c1C .
Result string: 100 to 1000 nM

Query string: Can you share its IC50? I mean this molecule: Cc1ccc(F)c([C@@H](C)[C@H](NS(=O)(=O)c2ccc(Cl)c(Cl)c2)c2nn[nH]n2)c1C
Result string: 100 to 1000 nM

Query string: IC50 for Cc1ccc(F)c([C@@H](C)[C@H](NS(=O)(=O)c2ccc(Cl)c([C@@H](O)C(=O)N(C)C)c2)c2nn[nH]n2)c1C ?
Result string: 100 to 1000 nM

Query string: Looking for the measured IC50 of Cc1ccc(F)c([C@@H](C)[C@H](NS(=O)(=O)c2ccc(Cl)cc2C(N)=O)c2nn[nH]n2)c1C , can you help?
Result string: ≤ 100 nM

Query string: Could you share which IC50 value was measured for Cc1ccc(Cl)cc1S(=O)(=O)N[C@H](c1nn[nH]n1)[C@H](C)c1c(F)ccc(C)c1C ?
Result string: 5000 to 30000 nM

Query string: I am curious: what IC50 value has been reported for Cc1ccc(F)c([C@@H](C)[C@H](NS(=O)(=O)c2ccc(Cl)cc2Cl)c2nn[nH]n2)c1C ?
Result string: 100 to 1000 nM
